Target: HLA-A*31:01
Test: IEDB peptide-MHC binding, purified MHC/direct/fluorescence; filed as Kd, often an IC50 or EC50 that approximates it; bounds were set here for any values at or beyond the usual limits of such assays
Details: source organism: Vibrio parahaemolyticus
pKd: −log10 of the molar value.
Listed next: entries and their corresponding pKd.
valueKind: pKd

| chainSequence | sign | measurement |
| --- | --- | --- |
| ASEELMDKY | ≤ | 4.70 |
| VFMDNAFKK | = | 5.66 |

* * *

Molecular target: HLA-B*40:01
Experiment: IEDB peptide-MHC binding, purified MHC/competitive/radioactivity; filed as Kd, often an IC50 or EC50 that approximates it; bounds were set here for any values at or beyond the usual limits of such assays
Conditions: source organism: Dengue virus 2 Jamaica/1409/1983
pKd: −log10 of the molar value.

| chainSequence | pKd |
| --- | --- |
| LEFFLIVLLI | 6.19 |
| AEMEEALRGL | 7.89 |
| LEYTIVITPH | 5.61 |
| MECSPRTGL | 6.82 |

* * *

Property: pKd; scope: individual sequences
Biological target: HLA-B*35:01
Test: IEDB peptide-MHC binding, purified MHC/competitive/fluorescence; filed as Kd, often an IC50 or EC50 that approximates it; bounds were set here for any values at or beyond the usual limits of such assays
Conditions: source organism: Bacillus anthracis str. A2012
pKd: −log10 of the molar value.
valueKind: pKd

| chainSequence | valueKind | sign | measurement |
| --- | --- | --- | --- |
| ITTFFTFAY | pKd | = | 6.72 |
| MPLKKQILF | pKd | ≥ | 10.00 |

* * *

Target: HLA-A*02:01
Experiment: IEDB peptide-MHC binding, purified MHC/direct/fluorescence; filed as Kd, often an IC50 or EC50 that approximates it; bounds were set here for any values at or beyond the usual limits of such assays
Details: source organism: Salmonella enterica subsp. enterica serovar Typhimurium

| chainSequence | Kd, nM |
| --- | --- |
| QVNDVLHSV | 41 |

* * *

Molecular target: HLA-B*35:01
Experiment: IEDB peptide-MHC binding, purified MHC/competitive/fluorescence; filed as Kd, often an IC50 or EC50 that approximates it; bounds were set here for any values at or beyond the usual limits of such assays
Settings: source organism: Shigella flexneri 2a str. 2457T
pKd: −log10 of the molar value.

| chainSequence | pKd |
| --- | --- |
| MSPDNALIY | 8.14 |

* * *

Molecular target: HLA-B*44:02
Assay: IEDB peptide-MHC binding, purified MHC/competitive/fluorescence; filed as Kd, often an IC50 or EC50 that approximates it; bounds were set here for any values at or beyond the usual limits of such assays
Conditions: source organism: Salmonella enterica subsp. enterica serovar Typhi

| chainSequence | Kd |
| --- | --- |
| SVIDHIHYM | ≥ 20 µM |

* * *

Molecular target: HLA-B*27:05
Assay: IEDB peptide-MHC binding, purified MHC/direct/fluorescence; filed as Kd, often an IC50 or EC50 that approximates it; bounds were set here for any values at or beyond the usual limits of such assays
Conditions: source organism: Campylobacter jejuni

| chainSequence | Kd |
| --- | --- |
| VSIRGSHHK | ≥ 20 µM |

* * *

Biological target: HLA-B*07:02
Test: IEDB peptide-MHC binding, purified MHC/competitive/fluorescence; filed as Kd, often an IC50 or EC50 that approximates it; bounds were set here for any values at or beyond the usual limits of such assays
Conditions: source organism: Yersinia pestis Nepal516

| chainSequence | studySystem | measureUnit | Kd |
| --- | --- | --- | --- |
| MPLKVQVCI | HLA-B*07:02 | nM | 304 |

The reported measurements were obtained from the Immune Epitope Database (IEDB).
